Values were extracted from PubChem BioAssay.

# Protocol notes: inhibition of 3D7 malaria parasite growth – strain 3D7 (AID 2306);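 further: 0% = DMSO wells and 100% = chloroquine plus artemisinin control wells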
# Details: P. falciparum 3D7 erythrocytic growth, LDH absorbance, 72 h; at 2 µM; stronger effect = higher value
Experimental readout: growth inhibition (%)
Could you give me the number in %? Just the number is fine.

What value of measured growth inhibition is listed for `Cc1cc(Nc2ccccc2)nc(Nc2ccccc2C)n1` ?
85

Give the measured growth inhibition of `Cn1ccnc1CNC(=O)c1ccc(-c2ccc(-c3nc4ccc(C(F)(F)F)cc4[nH]3)s2)cc1` .
101

Give the measured growth inhibition of `Cc1cc(-c2cccc(CNCCc3ccc(Cl)cc3)c2)cnc1N` .
90

Bench note: what growth inhibition did NC1=NC(CCc2ccccc2)N(c2ccccc2)C(N)=N1 (stereo not given) show?
94

Report growth inhibition for `CN(CCCN(C)c1cc(NC(=O)c2ccc(F)cc2)ccn1)Cc1cccc(O)c1` please.
90

Which value of growth inhibition has been reported for `O=c1cc(NCCCNCc2cc(Br)cs2)[nH]c2ccccc12` in the records?
85

Please give the measured growth inhibition for this compound: `CC[C@H](C)CNC(=O)c1ccc(-c2cccc(CN3CCC(N4CCCC4)CC3)c2)nc1`
91

Tell me the measured growth inhibition of `O=C(NCCN1CCCCC1)c1ccc(CNC(=O)c2ccc(O)c(-c3ccc(Cl)c(Cl)c3)c2)cc1` , please.
93

GET /values?readout=growth inhibition&item= `COc1ccccc1CNC(=O)CCn1c(=O)[nH]c2ccsc2c1=O`
85

Reported growth inhibition, compound `CN1CCc2cc(NC(=O)c3cc4ccccc4s3)cc(-c3ccccc3)c2CC1` : ____
91
